Hello, the source for this data is patent US5332731A, in case you need it.

MIC by entry:
- System: Escherichia coli 255
VALUE TYPE: MIC (µg/mL)

INSERT INTO assay_data (compound, data_value) VALUES
  ('CO/N=C(\C(=O)NC1C(=O)N2C(C(=O)O)=C(SCC3COC(C)(C)O3)CS[C@H]12)c1csc(N)n1 (some centres unmarked)', 100),
  ('CO/N=C(\C(=O)NC1C(=O)N2C(C(=O)O)=C(SC3COCOC3)CSC12)c1csc(N)n1 (centres unmarked)', 25),
  ('Nc1nc(/C(=N/O)C(=O)NC2C(=O)N3C(C(=O)O)=C(SCC4CCCCO4)CS[C@H]23)cs1 (some centres unmarked)', 100),
  ('CO/N=C(\C(=O)NC1C(=O)N2C(C(=O)O)=C(SCC3COCO3)CS[C@H]12)c1csc(N)n1 (some centres unmarked)', 50),
  ('Nc1nc(/C(=N/O)C(=O)NC2C(=O)N3C(C(=O)O)=C(SCC4CCOCC4)CS[C@H]23)cs1 (some centres unmarked)', 50);

---

Enterobacter hirae ATCC8043 data, read-out MIC
VALUE TYPE: MIC (µg/mL)

INSERT INTO results (molecule, readout_relation, data_value) VALUES
  ('Nc1nc(/C(=N/O)C(=O)NC2C(=O)N3C(C(=O)O)=C(SCC4COCO4)CSC23)cs1 (stereo not shown) [Compound No. 35]', '=', 12.5),
  ('CO/N=C(\C(=O)NC1C(=O)N2C(C(=O)O)=C(SC3CCOCC3)CS[C@H]12)c1csc(N)n1 (stereo partly shown) [Compound No. 7]', '=', 6.25),
  ('CO/N=C(\C(=O)NC1C(=O)N2C(C(=O)O)=C(SC3CCOC3)CS[C@H]12)c1csc(N)n1 (stereo partly shown) [Compound No. 3]', '=', 12.5),
  ('CO/N=C(\C(=O)NC1C(=O)N2C(C(=O)O)=C(SCC3CCCO3)CS[C@H]12)c1csc(N)n1 (stereo partly shown) [Compound No. 1]', '=', 12.5),
  ('Nc1nc(/C(=N/O)C(=O)NC2C(=O)N3C(C(=O)O)=C(SCC4CCCO4)CS[C@H]23)cs1 (stereo partly shown) [Compound No. 11]', '=', 6.25),
  ('CO/N=C(\C(=O)NC1C(=O)N2C(C(=O)O)=C(SCC3CCOCC3)CS[C@H]12)c1csc(N)n1 (stereo partly shown) [Compound No. 31]', '>', 100),
  ('CC1(C)OCCC(CSC2=C(C(=O)O)N3C(=O)C(NC(=O)/C(=N\O)c4csc(N)n4)[C@H]3SC2)O1 (stereo partly shown) [Compound No. 17]', '=', 25);

---

Staphylococcus aureus 209P JC-1 data, read-out MIC
VALUE TYPE: MIC

INSERT INTO results (compound, value_type, data_value) VALUES
  ('CO/N=C(\C(=O)NC1C(=O)N2C(C(=O)O)=C(SC3CCOCC3)CS[C@H]12)c1csc(N)n1 (stereo partly shown)', 'MIC', '0.78 µg/mL'),
  ('CC1(C)OCCC(CSC2=C(C(=O)O)N3C(=O)C(NC(=O)/C(=N\O)c4csc(N)n4)[C@H]3SC2)O1 (stereo partly shown)', 'MIC', '0.78 µg/mL'),
  ('Nc1nc(/C(=N/O)C(=O)NC2C(=O)N3C(C(=O)O)=C(SCC4CCCCO4)CS[C@H]23)cs1 (stereo partly shown)', 'MIC', '1.56 µg/mL'),
  ('CO/N=C(\C(=O)NC1C(=O)N2C(C(=O)O)=C(SCC3CCCO3)CS[C@H]12)c1csc(N)n1 (stereo partly shown)', 'MIC', '0.2 µg/mL'),
  ('Nc1nc(/C(=N/O)C(=O)NC2C(=O)N3C(C(=O)O)=C(SCC4CCOCC4)CS[C@H]23)cs1 (stereo partly shown)', 'MIC', '0.39 µg/mL'),
  ('Nc1nc(/C(=N/O)C(=O)NC2C(=O)N3C(C(=O)O)=C(SCC4COCO4)CSC23)cs1 (stereo not shown)', 'MIC', '0.39 µg/mL'),
  ('Nc1nc(/C(=N/O)C(=O)NC2C(=O)N3C(C(=O)O)=C(SCC4CCCO4)CS[C@H]23)cs1 (stereo partly shown)', 'MIC', '0.2 µg/mL');
